Test system: MM cell line
Test: Multiple Myeloma Assay
Type: cell-based
Settings: dose 3 μM; 72 hrs in culture
property-label: Cell Concentration, MM cell line

> print(dat)
                                   molecule                    property.label       assay.result
1  COc1cc(Br)c(Nc2nc(-c3c(C)nc4ncccn34)cs2)c(Br)c1 [Cpd 1]  Cell Concentration, MM cell line  0.39 ± 0.02 ×10^6
2  COCCOc1cc(Br)c(Nc2nc(-c3cnc4ccc(Cl)cn34)cs2)c(Br)c1 [Cpd 134]  Cell Concentration, MM cell line  0.75 ± 0.03 ×10^6
3  COc1ccc(Nc2nc(-c3c(C)nc4ncccn34)cs2)cc1 [Cpd 14]  Cell Concentration, MM cell line  0.25 ± 0.01 ×10^6
4  COc1cc(C)c(Nc2nc(-c3cnc4ccc(Cl)cn34)cs2)c(C)c1 [Cpd 27]  Cell Concentration, MM cell line   0.2 ± 0.05 ×10^6
5  COc1cc(Br)c(Nc2nc(-c3cnc4ccc(Cl)cn34)cs2)c(Br)c1 [Cpd 24]  Cell Concentration, MM cell line  0.17 ± 0.01 ×10^6
6  Cc1nc2ncccn2c1-c1csc(Nc2ccc(Cl)cc2)n1 [Cpd 49]  Cell Concentration, MM cell line  0.22 ± 0.01 ×10^6
